tested on: tetrabenazine ptosis; assay: Antagonism of tetrabenazine ptosis on rats, p.o.; assay type: in vivo
Known Ther. index of a selection of compounds
reported_metric: Ther. index

- CN(C)CCC=C1c2ccccc2CCc2ccccc21 [Amitriptyline, reference compound]: 46
- OC1(c2ccc(Cl)cc2)NC=N[n+]2ccc3ccccc3c21 (centres unmarked) [Compound B]: 1100
- Clc1ccc(-c2ncn[n+]3ccc4ccccc4c23)cc1 [Reference compound D, reference compound]: 179
- OC1(c2ccc(Cl)cc2)NC=N[n+]2ccc3ccccc3c21 (centres unmarked) [Compound A]: 4333
- OC1(c2ccc(Cl)cc2)NC=N[n+]2ccc3ccccc3c21 (centres unmarked) [Compound C]: 191
